Hello, the source for this data is PubChem BioAssay, in case you need it.

experimental-protocol: SK-BR-3 cell growth inhibitors, pilot screen, 24 h, human (AID 572);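 further: compound exposure lasted between 18 and 24 h rather than exactly 24 h; 100% = carrier-treated control wells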
condition-set: SK-BR-3 viability, CellTiter-Glo luminescence, at 10 µM, active compounds read low
endpoint: viability (%)
Provide only the numeric value, understood in %.

IN: # get_value(readout='viability', item= `Cc1ccc(OCC(=O)N2CCN(C(=O)CCC3CCCC3)CC2)cc1` )
OUT: 104

IN: Reported viability, compound `Cc1nn(-c2ccccc2)c2c1C(=O)NC(=O)C(C)(C)C2` : ____
OUT: 96.5

IN: Query (compound): `CCC(=O)Nc1nn(C)c2nc3c(C)cccc3cc12` ; field requested: viability
OUT: 92

IN: // lookup viability for `COc1ccc(N2CCN(C(=O)CSc3ccccc3N)CC2)cc1`
OUT: 85.5

IN: I'd like to know its viability. The compound in question is `Cc1ccc(NC(=O)CSc2nnc(-c3ccc(S(=O)(=O)N4CCOCC4)cc3)n2C)cc1`
OUT: 102

IN: Reported viability for `Cc1ccc(-c2nnc(-c3cccc(Br)c3)o2)cc1` : what is it?
OUT: 106

IN: Name the recorded viability for CC(C)c1nc(NCC2CCCO2)c(C#N)c2c1COC(C)(C)C2 (stereo not given) .
OUT: 95

IN: // viability lookup, key: `Cc1cc(O)c(-c2cc(C(=O)Nc3ccc(S(=O)(=O)N4CCOCC4)cc3)[nH]n2)cc1C`
OUT: 120

IN: I am curious: what viability value has been reported for `Cc1cc(NC(=O)Cc2c(F)cccc2Cl)no1` ?
OUT: 102

IN: Dear colleague, I am looking for the recorded viability of the following compound: `COc1ccc(NS(=O)(=O)c2ccc(N)cc2)nn1`
OUT: 91

IN: Fill blank: measured viability of the compound Cn1c(SCc2ccccc2)nnc1C1CCCNC1 (stereo not given) is ____.
OUT: 112

IN: Reported viability for C=CCOc1ccc(C2/C(=C(\O)c3c(C)[nH]c(C(=O)OC)c3C)C(=O)C(=O)N2CCN(C)C)cc1 (stereo not given) : what is it?
OUT: 95

IN: Looking for the measured viability of `CCOC(=O)c1cc(C(C)(C)C)oc1CN` , can you help?
OUT: 118

IN: // query viability value for entry CCn1c(SCC(=O)Nc2ccc3c(c2)OCO3)nc2c(c1=O)SC(C)C2 (stereo not given)
OUT: 92.5

IN: Which viability reading was recorded for the compound `CCOC(=O)c1ccc(N=Cc2nc(-c3ccccc3)oc2OC(C)=O)cc1` ?
OUT: 106

IN: Which viability is reported for this compound? `O=C(CN1CCSCC1)N1CCc2[nH]c3ccc(Br)cc3c2C1`
OUT: 84

IN: Which viability reading was recorded for the compound `Nc1nonc1C(=O)NCCNCc1cc(Br)ccc1OCc1ccccc1F` ?
OUT: 97.5

IN: Fill blank: measured viability of the compound `CCCN(CC1CC1)C(=O)Nc1ccccc1C` is ____.
OUT: 94

IN: Which viability value is on record for `C1=C(CCNc2ncnc3c2cnn3-c2ccccc2)CCCC1` ?
OUT: 98

IN: I'd like to know its viability. The compound in question is `Cc1[nH]nc(-c2ccc(O)c(C)c2O)c1-c1cnn(-c2ccccc2)c1`
OUT: 93

IN: Would you kindly share the measured viability for `COc1cc(NC(=O)c2ccc(COCC(F)(F)F)o2)cc(OC)c1OC` ?
OUT: 95

IN: May I ask what viability has been recorded for `COCCSc1nnc(NC(=O)CSCc2ccccc2)s1` ?
OUT: 102

IN: Any idea what viability was measured for `COc1ccccc1-c1nnc(NC(=O)c2ccc(S(=O)(=O)N(C)Cc3ccccc3)cc2)o1` ?
OUT: 85

IN: # get_value(readout='viability', item= `O=C(O)c1ccc(NC(=O)c2cccs2)cc1` )
OUT: 87

IN: # viability lookup, item `NC(=O)N1c2ccccc2C=Cc2ccccc21`
OUT: 95

IN: // returns reported viability for input CC(C)Cc1ccc(C(C)C(=O)O)cc1 (stereo not given)
OUT: 99

IN: // returns reported viability for input `CC(C)(C)c1ccc(C(=O)N2CCC(C(=O)NCc3ccncc3)CC2)cc1`
OUT: 110

IN: What value of measured viability is listed for Cc1ccc2nc(NC(=O)C3CCCN(S(=O)(=O)c4cccc5nonc45)C3)sc2c1 (stereo not given) ?
OUT: 97.5

IN: Need viability, item CCC(CC)C1C(C#N)=C(N)Oc2n[nH]c(C)c21 (stereo not given)
OUT: 85

IN: Using the record for `CCOc1ccc(-c2cc(C(=O)N3CCN(c4ccccn4)CC3)c3ccccc3n2)cc1` , report its viability.
OUT: 127
